- Experimental System: HBsAg clinical mutation G145R (Hepatitis B virus)
- Assay Remarks: sandwich ELISA, captured mutant HBsAg from culture supernatant;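 further: Anti-HBsAg antibodies tested for binding to mutant HBsAg secreted by stably transfected cell lines, supernatant incubated 1 h on antibody-coated plates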
Value Kind: IC50 (nM)
API: value field is a number in nM; no unit string.

Examples with answers:
| Binder | Uom | IC50 |
| --- | --- | --- |
| NOV3357 (antibody, human IgG1, kappa, V domains shown, Full human IgG1 (kappa) expressed in CHO cells) VH: EVQLLESGGGLVQPGGSLRLSCAASGFTFSPHAMSWVRQAPGKGLEWVSAISDSGGSTHYADSVKGRFTISRDNSKNTLYLQMNSLRAEDTAVYYCARDDDGWSGYDYWFDYWGQGTLVTVSS VL: DIQMTQSPSSLSASVGDRVTITCRASQSISPYLNWYQQKPGKAPKLLIYAADSLQSGVPSRFSGSGSGTDFTLTISSLQPEDFATYYCQQSYKIPLTFGQGTKVEIKR | nM | 5.5 |
| NOV3540 (antibody, human IgG1, kappa, V domains shown, Full human IgG1 (kappa) expressed in CHO cells) VH: EVQLLESGGGLVQPGGSLRLSCAASGFTFSPHAMSWVRQAPGKGLEWVSAISDSGGSTHYADSVKGRFTISRDNSKNTLYLQMNSLRAEDTAVYYCARDDDAWSGYDYWFDYWGQGTLVTVSS VL: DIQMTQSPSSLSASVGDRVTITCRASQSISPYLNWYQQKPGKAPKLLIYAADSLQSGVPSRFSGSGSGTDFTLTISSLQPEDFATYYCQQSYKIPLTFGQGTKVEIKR | nM | 0.25 |
| NOV3838 (antibody, human IgG1, kappa, V domains shown, Full human IgG1 (kappa) expressed in CHO cells) VH: QVQLQESGGRLVRPGGSLRLSCAASGFIFTDYYMTWIRQAPGKGPEWIAFITSGGETTYYADSVKGRFTISRDNAKKSLFLQMYSLRADDTAVYYCVRAHFDLYQYDTRGDFTYYFDNWGLGTLVSVSS VL: EIVMTQSPATLSVSPGERVTLSCRASQSVSSSLAWYQQKPGRAPRLLIYGASTRATGVPARFSGGGSGTDFTLTISSLQSEDFAVYYCHQYINWPPGDTFGQGTRLDIKR | nM | 5.2 |

Next item in the queue.
// NOV3839 (antibody, human IgG1, kappa, V domains shown, Full human IgG1 (kappa) expressed in CHO cells) VH: QVQLQESGGRLVRPGGSLRLSCAASGFIFTDYYMTWIRQAPGKGPEWIAFITSGGETTYYADSVKGRFTISRDNAKKSLFLQMYSLRADDTAVYYCVRAHFDIYQYDTRGDFTYYFDNWGLGTLVSVSS VL: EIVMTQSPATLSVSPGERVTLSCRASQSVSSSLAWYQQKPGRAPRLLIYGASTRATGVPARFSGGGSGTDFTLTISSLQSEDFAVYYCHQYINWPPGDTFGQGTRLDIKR : IC50 value = 8.6
